- subject_of_test: ROR1 (antigen of the KD determination and of the Octet dissociation measurement) (UniProt Q01973 30-403, limits assumed)
- Sequence (Q01973 30-403 limits assumed): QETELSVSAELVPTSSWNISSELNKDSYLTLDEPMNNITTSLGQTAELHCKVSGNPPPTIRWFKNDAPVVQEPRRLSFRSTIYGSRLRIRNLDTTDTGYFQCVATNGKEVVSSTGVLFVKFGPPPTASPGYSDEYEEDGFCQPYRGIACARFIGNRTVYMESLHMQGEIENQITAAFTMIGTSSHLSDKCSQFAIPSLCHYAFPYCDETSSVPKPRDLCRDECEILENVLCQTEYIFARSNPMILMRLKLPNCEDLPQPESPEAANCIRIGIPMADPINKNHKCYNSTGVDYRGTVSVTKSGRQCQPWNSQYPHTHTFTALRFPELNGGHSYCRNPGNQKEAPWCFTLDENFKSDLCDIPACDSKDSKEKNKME
- method_description: method not stated (conventional procedures)
endpoint_label: koff (s⁻¹)
Output spec: scalar in s⁻¹, unitless text.

Before answering, review these 3 worked examples.
koff for PR001357 (antibody, human IgG1, kappa, V domains shown, fully human IgG1, kappa) VH: QVQLVQSGGGVVQPGRSLRLSCAASGFTFSSYGMHWVRQAPGKGLEWVAVIWYDGSNKDYADSVKGRFTISRDTSKNTLYLQMNSLRAEDTAVYYCAREQARSFDLWGRGTLVTVSS VL: DIQLTQSPYSLSASVGDRVTITCRASQTINNWLAWYQQKPGKAPKLLIYKASSLESGVPSRFSGSGSGTEFTLTISSLQPDDFATYYCQQYKLYSPMYTFGQGTKVEIKR ?
0.000191

Which koff reading was recorded for the binder PR001365 (antibody, human IgG1, kappa, V domains shown, fully human IgG1, kappa) VH: QVQLVQSGGGVVQPGRSLRLSCAASGFTFSSYGMHWVRQAPGKGLEWVAVIWYDGSDKDYADSVKGRFTISRDTSKNTLYLQMNSLRAEDTAVYYCAREQARSFDLWGRGTLVTVSS VL: DIQMTQSPYSLSASVGDRVTITCRASQTINNWLAWYQQKPGKAPKLLIYKASSLESGVPSRFSGSGSGTEFTLTISSLQPDDFATYYCQQYKLYSPMYTFGQGTKVEIKR ?
7.72e-05

Would you mind telling me what koff value was observed for PR001368 (antibody, V domains shown, fully human IgG1, kappa) VH: QVQLVESGGGVVQPGRSLRLSCAASGFTFSTYGMHWVRQAPGKGLEWVAVIWYDGSDTDYADSVKGRFTISRDTSKNTLYLQMNSLRAEDTAVYYCAREQARSFDLWGRGTLVTVSS VL: DIVMTQSPSTLSASVGDRVTITCRASQSINSWLAWYQQKPGKAPKLLIYKASSLESGVPSRFSGSGSGTEFTLTISSLQPDDFATYYCQQYKSYSPMYTFGQGTKVEIKR ?
0.000867

Next item in the queue.
Could you share which koff value was measured for PR001417 (antibody, V domains shown, fully human IgG1, kappa) VH: QVQLVESGGGVVQPGRSLRLSCAASGFSFSSYAMHWVRQAPGRGLEWVAVIWYDGGDEDYIDSVKGRFTISRDDSKNTLYLQMNSLRAEDTAVYYCAREQARSFDLWGRGTLVTVSS VL: DVVMTQSPSTLSASVGDRVTITCRASQSINSWLAWYQQKPGKAPKLLIYKASSLESGVPSRFSGSGSGTEFTLTISSLQPDDFATYYCQQYNSYSPMYTFGQGTKVEIKR ?
0.00646
